- experiment summary: ATG_E_Box_CIS: Attagene CIS-FACTORIAL HepG2 Assay for human Enhancer Box (E-box) (AID 2282936)
- condition set: HepG2 E-box cis-reporter transcription, actives raise or lower the signal
Active and inactive are the calls of the source. Rule for the calls: active = hit-call score of the fitted dose curve at least 0.9, where 1 is the maximum; inactive = score below 0.9.
Hi! Could you answer with just one of these? active, inactive

Lookup: Tell me the assay call for CC1(C)C(C(=O)OC(C#N)c2cccc(Oc3ccccc3)c2)C1(C)C (stereo unspecified) please.
Found: inactive

Lookup: Recorded call for COCC(C)N(C(=O)CCl)c1c(C)csc1C (stereo unspecified) ?
Found: inactive

Lookup: What did the test return for `CC(C)NC(=O)N1CC(=O)N(c2cc(Cl)cc(Cl)c2)C1=O` ?
Found: inactive

Lookup: What is the recorded call for this compound in the test? `CC(C)Oc1cccc(NC(=O)c2ccccc2C(F)(F)F)c1`
Found: inactive

Lookup: Outcome? CCCC(=NOCC)C1=C(O)CC(CC(C)SCC)CC1=O (stereo unspecified)
Found: inactive

Lookup: Per the assay record, what outcome was assigned to CCNP(=S)(OC)O/C(C)=C/C(=O)OC(C)C (stereo unspecified) ?
Found: inactive

====

- experiment summary: BSK_SAg_PBMCCytotoxicity: PBMC Cytotoxicity Assessment in the BioMAP Diversity Plus: SAg Assay (AID 2283093);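 note: PBMC viability measured as Alamar Blue reduction fluorescence at 546/580 nm; fitted both ways against DMSO so a hit may be loss or gain of signal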
- condition set: primary human HUVEC with PBMC
Active and inactive are the calls of the source. Rule for the calls: active = hit-call score of the fitted dose curve at least 0.9, where 1 is the maximum; inactive = score below 0.9.
Valid outcomes are listed here; reply with one: active, inactive

These recorded examples may help you get a feel for the data.
{"columns": ["compound", "assigned class"],
 "data": [
  ["Cc1c(COC(=O)[C@@H]2[C@H](/C=C(\\Cl)C(F)(F)F)C2(C)C)cccc1-c1ccccc1", "inactive"],
  ["CC(C)Oc1cccc(NC(=O)c2ccccc2C(F)(F)F)c1", "inactive"],
  ["Nc1cnn(-c2ccccc2)c(=O)c1Cl", "inactive"],
  ["CCSC(=O)N1CCCCCC1", "inactive"],
  ["N#Cc1c[nH]cc1-c1cccc2c1OC(F)(F)O2", "inactive"]
]}

Lookup: Could you please tell me the result logged for CC1(C)C(C=C(Cl)Cl)C1C(=O)OC(C#N)c1cccc(Oc2ccccc2)c1 (stereo not drawn) in this assay?
Found: inactive

Lookup: Tell me the recorded outcome of this test for `CS(=O)(=O)c1ccc(C(=O)C2C(=O)CCCC2=O)c([N+](=O)[O-])c1` .
Found: inactive

Lookup: State the result this test recorded for CCNP(=S)(OC)O/C(C)=C/C(=O)OC(C)C (stereo not drawn) .
Found: inactive

Lookup: Query: recorded result category for `CC1(C)CON(Cc2ccccc2Cl)C1=O` in this test
Found: inactive

Lookup: Hi, do you know how COCc1cnc(C2=NC(C)(C(C)C)C(=O)N2)c(C(=O)O)c1 (stereo not drawn) came out in this test?
Found: inactive

Lookup: Can you look up the reported call for `COc1cc(Cl)c(OC)cc1Cl` for me?
Found: inactive

Lookup: # outcome recorded in this test, key = `CCOc1nc(C(Cl)(Cl)Cl)ns1`
Found: inactive

Lookup: Assay result, entry Cc1cnc(C2=NC(C)(C(C)C)C(=O)N2)c(C(=O)O)c1 (stereo not drawn) — outcome?
Found: inactive

Lookup: Please share the test call associated with `O=C(Nc1ccccc1-c1ccc(Cl)cc1)c1cccnc1Cl` .
Found: inactive

====

- Read-out: Transforming growth factor beta 1 (TGFb1), TGFB1 (gene 7040)
- experiment summary: BSK_BE3C_TGFb1: BioMAP Diversity Plus: BE3C Assay for Transforming growth factor beta 1 (TGFb1) Biomarker Activity (AID 2283036)
- condition set: primary human bronchial epithelial cells; actives raise or lower the signal
The source made the active and inactive calls. The calls were made as follows: active = hit-call score of the fitted dose curve at least 0.9, where 1 is the maximum; inactive = score below 0.9.
Answer with one of the outcomes given here: 1 (active), 0 (inactive)

A selection of reference data follows.
{"columns": ["compound", "assigned class"],
 "data": [
  ["N#CN=C1SCCN1Cc1ccc(Cl)nc1", 0],
  ["COP(=S)(OC)SCn1nnc2ccccc2c1=O", 0],
  ["Cc1ccc(N=CN(C)C=Nc2ccc(C)cc2C)c(C)c1", 1],
  ["Nc1c(Cl)c(F)nc(OCC(=O)O)c1Cl", 0],
  ["COCC(=O)N(c1c(C)cccc1C)C(C)C(=O)OC (configuration not stated)", 0]
]}

Lookup: Per the assay record, what outcome was assigned to `CSC(=O)c1c(C(F)F)nc(C(F)(F)F)c(C(=O)SC)c1CC(C)C` ?
Found: 0

Lookup: Which outcome did this test record for the compound `CCN(CC)c1nc(C)cc(OP(=S)(OC)OC)n1` ?
Found: 0

====

- measured target: Retinoic acid receptor alpha (Homo sapiens) (UniProt P10276)
- Sequence (P10276 whole entry, looked up): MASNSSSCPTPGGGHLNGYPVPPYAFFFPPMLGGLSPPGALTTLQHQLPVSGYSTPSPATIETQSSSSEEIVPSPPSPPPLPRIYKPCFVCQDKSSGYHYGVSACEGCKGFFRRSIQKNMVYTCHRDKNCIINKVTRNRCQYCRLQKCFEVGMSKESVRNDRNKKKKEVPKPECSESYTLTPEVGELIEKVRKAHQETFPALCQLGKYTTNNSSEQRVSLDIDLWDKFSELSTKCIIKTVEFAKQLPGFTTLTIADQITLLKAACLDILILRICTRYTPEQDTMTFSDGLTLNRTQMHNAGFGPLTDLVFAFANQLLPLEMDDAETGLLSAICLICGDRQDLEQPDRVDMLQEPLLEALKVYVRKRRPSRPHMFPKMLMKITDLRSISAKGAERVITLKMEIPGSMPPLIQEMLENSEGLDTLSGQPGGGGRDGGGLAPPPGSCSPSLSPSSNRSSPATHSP
- experiment summary: ATG_DR5_RAR_CIS: Attagene CIS-FACTORIAL HepG2 Assay for human Retinoic Acid Receptor Alpha (RARE), DR5 submotif (AID 2282934);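 for AC50: reporter responds to endogenous RAR alpha beta and gamma in HepG2 not RARA alone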
- condition set: HepG2 Attagene cis-factorial RARE DR5 reporter, mRNA; actives raise or lower the signal
The source made the active and inactive calls. Rule for the calls: active = hit-call score of the fitted dose curve at least 0.9, where 1 is the maximum; inactive = score below 0.9.
outcome measure: AC50

Please review the following examples before continuing.
{"columns": ["compound", "assay value"],
 "data": [
  ["C=C(C)CN(CC)c1c([N+](=O)[O-])cc(C(F)(F)F)cc1[N+](=O)[O-]", "18.4 µM (active)"],
  ["Nc1c(Cl)c(F)nc(OCC(=O)O)c1Cl", "inactive"],
  ["CSC(=O)c1c(C(F)F)nc(C(F)(F)F)c(C(=O)SC)c1CC(C)C", "1.28 µM (active)"],
  ["Clc1nc(Cl)nc(Nc2ccccc2Cl)n1", "inactive"],
  ["CN/C(=N\\[N+](=O)[O-])NCc1cnc(Cl)s1", "inactive"]
]}

Lookup: Any idea what AC50 was measured for `O=P(O)(O)CCCl` ?
Found: inactive

Lookup: State the recorded AC50 for this entry: `CNC(=O)Oc1cccc2ccccc12`
Found: inactive

Lookup: May I ask what AC50 has been recorded for `O=C(Nc1ccccc1-c1ccc(Cl)cc1)c1cccnc1Cl` ?
Found: inactive

Lookup: Form field: reported AC50 of `CNC(=O)N(C)c1nnc(C(C)(C)C)s1`
Found: inactive

Lookup: Consider the compound CCCC(=NOCC)C1=C(O)CC(CC(C)SCC)CC1=O (stereo unspecified) and give its measured AC50.
Found: inactive

Lookup: Which AC50 value belongs to `CCN(CC)c1nc(C)cc(OP(=S)(OC)OC)n1` ?
Found: inactive

====

- experiment summary: CCTE_Padilla_ZF_144hpf_TERATOSCORE: (Legacy) CCTE's 144 Hour Post-fertilization zebrafish Assay Teratoscore, Padilla Lab (AID 2283679)
Calls of active or inactive are those of the source. The calls were made as follows: active = hit-call score of the fitted dose curve at least 0.9, where 1 is the maximum; inactive = score below 0.9.
// one of active, inactive, no free text

{"columns": ["compound", "assigned class"],
 "data": [
  ["Nc1c(Cl)c(F)nc(OCC(=O)O)c1Cl", "inactive"],
  ["COC(=O)NC(=S)Nc1ccccc1NC(=S)NC(=O)OC", "active"],
  ["C=CCOC(=O)C(C)(C)OC(=O)c1cc(-n2c(=O)cc(C(F)(F)F)n(C)c2=O)ccc1Cl", "active"],
  ["CS(=O)(=O)c1ccc(C(=O)C2C(=O)CCCC2=O)c([N+](=O)[O-])c1", "active"],
  ["CCOP(=S)(OCC)Oc1nc(Cl)n(C(C)C)n1", "active"]
]}

Lookup: Hello, I am checking results. What call was entered for CCCC(=NOCC)C1=C(O)CC(CC(C)SCC)CC1=O (centres undefined) ?
Found: inactive

Lookup: What was the test verdict on `N#Cc1c(Cl)cccc1Cl` ?
Found: inactive

Lookup: Please share the test call associated with `CCOP(=O)(OCC)Oc1nc(Cl)c(Cl)cc1Cl` .
Found: active

Lookup: Check the results log: what was the call for `Cn1c(-c2ccccc2)cc(-c2ccccc2)[n+]1C` ?
Found: inactive

====

- measured target: Hepatocyte nuclear factor 6 (Homo sapiens)
- experiment summary: ATG_HNF6_CIS: Attagene CIS-FACTORIAL HepG2 Assay for human Hepatocyte Nuclear Factor 6 (HNF6) (AID 2282952)
- condition set: HepG2 Attagene cis-factorial HNF6 reporter transcription; actives raise or lower the signal
The source made the active and inactive calls. The calls were made as follows: active = hit-call score of the fitted dose curve at least 0.9, where 1 is the maximum; inactive = score below 0.9.
outcome measure: outcome

Example cases with answers are listed next.
{"columns": ["compound", "assay value"],
 "data": [
  ["CCSC(=O)N1CCCCCC1", "inactive"],
  ["COc1cc(OC)nc(NC(=O)NS(=O)(=O)c2ncccc2OCC(F)(F)F)n1", "inactive"],
  ["CCOc1cc(C(C)(C)C)ccc1C1COC(c2c(F)cccc2F)=N1 (configuration not stated)", "inactive"],
  ["CCN(CC)C(=O)C(C)Oc1cccc2ccccc12 (configuration not stated)", "inactive"]
]}

Lookup: I'd like to know its outcome. The compound in question is `CCCCOCN(C(=O)CCl)c1c(CC)cccc1CC`
Found: inactive

Lookup: What does the record list as outcome for CC1(C)CCC(=Cc2ccc(Cl)cc2)C1(O)Cn1cncn1 (configuration not stated) ?
Found: inactive

Lookup: // returns reported outcome for input `OC(c1ccc(Cl)cc1)(c1ccc(Cl)cc1)C(Cl)(Cl)Cl`
Found: inactive

These entries and their values trace back to PubChem BioAssay (EPA / NIEHS).
